Below, each of the molecules is paired with its reported PDI N/P:3 value.
# Protocol description: Dynamic light scattering: LNP particle size and PDI
# Format: physicochemical
# Assay conditions: LNP, Formulation F1, N/P 3
Enter the number alone.

# count of solved cases: 3
{"columns": ["Molecule", "Result value"],
 "data": [
  ["CCCCCCCC/C=C\\CCCCCCCC(=O)OCC(COC(=O)CCCCCCC/C=C\\CCCCCCCC)(COC(=O)CCCCCCC/C=C\\CCCCCCCC)COC(=O)CCC(CCCCCC)OC(=O)NCCN1CCCC1 (stereo not shown) [Compound 1]", 0.084],
  ["CCCCC/C=C\\CCOC(=O)CCCCCCC(=O)OCC(COC(=O)CCCCCCC(=O)OCC/C=C\\CCCCC)(COC(=O)CCCCCCC(=O)OCC/C=C\\CCCCC)COC(=O)CCC(CCCCCC)OC(=O)NCCN1CCCC1 (stereo not shown) [Compound 10]", 0.208],
  ["CCCCC/C=C\\C/C=C\\CCCCCCCC(=O)OCC(COC(=O)CCCCCCC/C=C\\C/C=C\\CCCCC)(COC(=O)CCC(CCCCCC)OC(=O)NCCN1CCCC1)COC(=O)CCC(OCCCCCCCC)OCCCCCCCC (stereo not shown) [Compound 6]", 0.09]
]}

(Q) Item CCCCCCCC/C=C\CCCCCCCC(=O)OCC(COC(=O)CCCCCCC/C=C\CCCCCCCC)(COC(=O)CCC(CCCCCC)OC(=O)NCCN1CCCC1)COC(=O)CCC(OCCCCCCCC)OCCCCCCCC (stereo not shown) [Compound 4] has what recorded PDI N/P:3?
(A) 0.092
